# System: 782815-120-R-J1-PDC complex spheroid viability
# ASSAY_COMMENT: Anticancer human tumor 782815-120-R-J1-PDC patient-derived colon adenocarcinoma cell line growth inhibition [RAS]
# RUN_CONDITIONS: curve of first compound; second compound 0.01 µM
pIC50: −log10 of the molar value.
Each record here notes measured pIC50.

Field: example entries. Status: answers known.
>>> result("CCc1c2c(nc3ccc(O)cc13)-c1cc3c(c(=O)n1C2)COC(=O)[C@]3(O)CC + C=CC(=O)N1CCN(c2nc(OCC3CCCN3C)nc3c(F)c(-c4nc(N)cc(C)c4C(F)(F)F)c(Cl)cc23)C(C)C1")
8.41
>>> result("CC(C)n1nc(-c2ccc3oc(N)nc3c2)c2c(N)ncnc21 + C=CC(=O)N1CCN(c2nc(OCC3CCCN3C)nc3c(F)c(-c4nc(N)cc(C)c4C(F)(F)F)c(Cl)cc23)C(C)C1")
"< 7.00"

Now for the compound whose pIC50 we want.
**Query** Item C=CC(=O)Nc1cc(Nc2nccc(-c3cn(C)c4ccccc34)n2)c(OC)cc1N(C)CCN(C)C + C=CC(=O)N1CCN(c2nc(OCC3CCCN3C)nc3c(F)c(-c4nc(N)cc(C)c4C(F)(F)F)c(Cl)cc23)C(C)C1 has what recorded pIC50?
**Result** < 6.00

###

Each record here notes measured viability, T/C.
# Tested on: 782815-120-R-J1-PDC complex spheroid viability
# ASSAY_COMMENT: Anticancer human tumor 782815-120-R-J1-PDC cell line growth inhibition [RAS];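 note: spheroids exposed to compounds for 7 days before reading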;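 for viability, T/C: 100% = DMSO vehicle control viability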
# RUN_CONDITIONS: second compound 0.0316 µM; first compound 0.0316 µM; stronger effect = lower value
# From the text: RAS pathway inhibitors in Combinations in Complex Spheroids A high-throughput screen of multi-cell type tumor spheroids was designed to identify active combinations of RAS pathway inhibitors and targeted small molecules. Complex spheroids include a stromal component modeled by human endothelial cells (HUVEC) and fibroblasts modeled by human mesenchymal stem cells (MSCs). […] Compounds. […] If the clinical Cmax for an agent had not been determined, the highest concentration tested was 10 microM. […]
Please respond with the number in % and leave the unit unwritten.

Field: example entries. Status: answers known.
>>> readout_number("Nc1ccn(C2OC(CO)C(O)C2(F)F)c(=O)n1 (stereo not drawn) + C#Cc1c(F)ccc2cc(O)cc(-c3ncc4c(N5CC6CCC(C5)N6)nc(OCC56CCCN5CC(F)C6)nc4c3F)c12")
64.8
>>> readout_number("CCC(CC)c1cc(NC2CCC(N)C2)n2nccc2n1 (stereo not drawn) + C#Cc1c(F)ccc2cc(O)cc(-c3ncc4c(N5CC6CCC(C5)N6)nc(OCC56CCCN5CC(F)C6)nc4c3F)c12")
93.3

Now for the compound whose viability, T/C we want.
**Query** Item C=CC(=O)Nc1cc(Nc2nccc(-c3cn(C)c4ccccc34)n2)c(OC)cc1N(C)CCN(C)C + C#Cc1c(F)ccc2cc(O)cc(-c3ncc4c(N5CC6CCC(C5)N6)nc(OCC56CCCN5CC(F)C6)nc4c3F)c12 has what recorded viability, T/C?
**Result** 101

###

# Tested on: 782815-120-R-J1-PDC complex spheroid viability
# ASSAY_COMMENT: Anticancer human tumor 782815-120-R-J1-PDC cell line growth inhibition [RAS];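 note: spheroids exposed to compounds for 7 days before reading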;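 for viability, T/C: 100% = DMSO vehicle control viability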
# RUN_CONDITIONS: second compound 0.003 µM; first compound 3.16 µM; stronger effect = lower value
ENDPOINT: viability, T/C (%)
Please respond with the number in % and leave the unit unwritten.

Field: example entries. Status: answers known.
>>> readout_number("Cc1nc(N2CCC3(CC2)COC(C)C3N)c(CO)nc1Sc1ccnc(N)c1Cl (stereo not drawn) + CCn1c(-c2cc(N3CCN(C)CC3)cnc2C(C)OC)c2c3cc(ccc31)-c1csc(n1)CC(NC(=O)C1CC1C)C(=O)N1CCCC(N1)C(=O)OCC(C)(C)C2")
58.4
>>> readout_number("CC1(O)CCCC1n1c(=O)c(C(F)F)cc2cnc(NC3CCN(S(C)(=O)=O)CC3)nc21 (stereo not drawn) + CCn1c(-c2cc(N3CCN(C)CC3)cnc2C(C)OC)c2c3cc(ccc31)-c1csc(n1)CC(NC(=O)C1CC1C)C(=O)N1CCCC(N1)C(=O)OCC(C)(C)C2")
39.1
>>> readout_number("CC(Nc1ccc2c(c1)OCCn1cc(N3C(=O)OCC3C(F)F)nc1-2)C(N)=O (stereo not drawn) + CCn1c(-c2cccnc2C(C)OC)c2c3cc(ccc31)N1CCOC(CC(NC(=O)C(C(C)C)N(C)C(=O)C3(F)CCN(C(=O)C#CC(C)(C)N(C)C)CC3)C(=O)N3CCCC(N3)C(=O)OCC(C)(C)C2)C1")
93.5

**Query** Item: CC(C)NCC(C(=O)N1CCN(c2ncnc3c2C(C)CC3O)CC1)c1ccc(Cl)cc1 (stereo not drawn) + CCn1c(-c2cc(N3CCN(C)CC3)cnc2C(C)OC)c2c3cc(ccc31)-c1csc(n1)CC(NC(=O)C1CC1C)C(=O)N1CCCC(N1)C(=O)OCC(C)(C)C2 Test system: 782815-120-R-J1-PDC complex spheroid viability Read-out: viability, T/C Value: ?
**Result** 57.2

**Query** Item: NC1c2ccccc2OC12CCN(c1cnc3c(N4CCCc5ncccc54)n[nH]c3n1)CC2 (stereo not drawn) + CCn1c(-c2cc(N3CCN(C)CC3)cnc2C(C)OC)c2c3cc(ccc31)-c1csc(n1)CC(NC(=O)C1CC1C)C(=O)N1CCCC(N1)C(=O)OCC(C)(C)C2 Test system: 782815-120-R-J1-PDC complex spheroid viability Read-out: viability, T/C Value: ?
**Result** 49.1

**Query** Item: CC(=O)OC12COC1CC(O)C1(C)C(=O)C(O)C3=C(C)C(OC(=O)C(O)C(NC(=O)OC(C)(C)C)c4ccccc4)CC(O)(C(OC(=O)c4ccccc4)C21)C3(C)C (stereo not drawn) + CCn1c(-c2cc(N3CCN(C)CC3)cnc2C(C)OC)c2c3cc(ccc31)-c1csc(n1)CC(NC(=O)C1CC1C)C(=O)N1CCCC(N1)C(=O)OCC(C)(C)C2 Test system: 782815-120-R-J1-PDC complex spheroid viability Read-out: viability, T/C Value: ?
**Result** 21.3

**Query** Item: C[C@@H](NC(=O)c1ncnc(N)c1Cl)c1ncc(C(=O)Nc2cc(C(F)(F)F)c(Cl)cn2)s1 + CCn1c(-c2cc(N3CCN(C)CC3)cnc2C(C)OC)c2c3cc(ccc31)-c1csc(n1)CC(NC(=O)C1CC1C)C(=O)N1CCCC(N1)C(=O)OCC(C)(C)C2 Test system: 782815-120-R-J1-PDC complex spheroid viability Read-out: viability, T/C Value: ?
**Result** 55.1

**Query** Item: C[C@@H](NC(=O)c1ncnc(N)c1Cl)c1ncc(C(=O)Nc2cc(C(F)(F)F)c(Cl)cn2)s1 + CCn1c(-c2cccnc2C(C)OC)c2c3cc(ccc31)N1CCOC(CC(NC(=O)C(C(C)C)N(C)C(=O)C3(F)CCN(C(=O)C#CC(C)(C)N(C)C)CC3)C(=O)N3CCCC(N3)C(=O)OCC(C)(C)C2)C1 Test system: 782815-120-R-J1-PDC complex spheroid viability Read-out: viability, T/C Value: ?
**Result** 59.6

###

# Test system: 782815-120-R-J1-PDC complex spheroid viability
# ASSAY_COMMENT: Anticancer human tumor 782815-120-R-J1-PDC cell line growth inhibition [RAS];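 note: spheroids exposed to compounds for 7 days before reading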;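 for viability, T/C: 100% = DMSO vehicle control viability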
# RUN_CONDITIONS: second compound 0.003 µM; first compound 3.16 µM; stronger effect = lower value
ENDPOINT: viability, T/C (%)
Please respond with the number in % and leave the unit unwritten.

**Query** Item CC(Nc1ccc2c(c1)OCCn1cc(N3C(=O)OCC3C(F)F)nc1-2)C(N)=O (configuration not stated) + CCn1c(-c2cc(N3CCN(C)CC3)cnc2C(C)OC)c2c3cc(ccc31)-c1csc(n1)CC(NC(=O)C1CC1C)C(=O)N1CCCC(N1)C(=O)OCC(C)(C)C2 has what recorded viability, T/C?
**Result** 45.1

**Query** Item NC1c2ccccc2OC12CCN(c1cnc3c(N4CCCc5ncccc54)n[nH]c3n1)CC2 (configuration not stated) + CCn1c(-c2cccnc2C(C)OC)c2c3cc(ccc31)N1CCOC(CC(NC(=O)C(C(C)C)N(C)C(=O)C3(F)CCN(C(=O)C#CC(C)(C)N(C)C)CC3)C(=O)N3CCCC(N3)C(=O)OCC(C)(C)C2)C1 has what recorded viability, T/C?
**Result** 102

###

Each record here notes measured viability, T/C.
# System: 782815-120-R-J1-PDC complex spheroid viability
# ASSAY_COMMENT: Anticancer human tumor 782815-120-R-J1-PDC cell line growth inhibition [RAS];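 note: spheroids exposed to compounds for 7 days before reading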;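 for viability, T/C: 100% = DMSO vehicle control viability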
# RUN_CONDITIONS: second compound 0.003 µM; first compound 0.1 µM; stronger effect = lower value
Please respond with the number in % and leave the unit unwritten.

Field: example entries. Status: answers known.
>>> readout_number("CC(C)NCC(C(=O)N1CCN(c2ncnc3c2C(C)CC3O)CC1)c1ccc(Cl)cc1 (configuration not stated) + CCn1c(-c2cccnc2C(C)OC)c2c3cc(ccc31)N1CCOC(CC(NC(=O)C(C(C)C)N(C)C(=O)C3(F)CCN(C(=O)C#CC(C)(C)N(C)C)CC3)C(=O)N3CCCC(N3)C(=O)OCC(C)(C)C2)C1")
98.3
>>> readout_number("CC(Nc1ccc2c(c1)OCCn1cc(N3C(=O)OCC3C(F)F)nc1-2)C(N)=O (configuration not stated) + CCn1c(-c2cc(N3CCN(C)CC3)cnc2C(C)OC)c2c3cc(ccc31)-c1csc(n1)CC(NC(=O)C1CC1C)C(=O)N1CCCC(N1)C(=O)OCC(C)(C)C2")
54.9
>>> readout_number("CC(=O)OC12COC1CC(O)C1(C)C(=O)C(O)C3=C(C)C(OC(=O)C(O)C(NC(=O)OC(C)(C)C)c4ccccc4)CC(O)(C(OC(=O)c4ccccc4)C21)C3(C)C (configuration not stated) + CCn1c(-c2cccnc2C(C)OC)c2c3cc(ccc31)N1CCOC(CC(NC(=O)C(C(C)C)N(C)C(=O)C3(F)CCN(C(=O)C#CC(C)(C)N(C)C)CC3)C(=O)N3CCCC(N3)C(=O)OCC(C)(C)C2)C1")
26.5
>>> readout_number("NC1c2ccccc2OC12CCN(c1cnc3c(N4CCCc5ncccc54)n[nH]c3n1)CC2 (configuration not stated) + CCn1c(-c2cccnc2C(C)OC)c2c3cc(ccc31)N1CCOC(CC(NC(=O)C(C(C)C)N(C)C(=O)C3(F)CCN(C(=O)C#CC(C)(C)N(C)C)CC3)C(=O)N3CCCC(N3)C(=O)OCC(C)(C)C2)C1")
104
>>> readout_number("O=C(c1ccc(F)c(F)c1Nc1ccc(I)cc1F)N1CC(O)([C@@H]2CCCCN2)C1 + CCn1c(-c2cc(N3CCN(C)CC3)cnc2C(C)OC)c2c3cc(ccc31)-c1csc(n1)CC(NC(=O)C1CC1C)C(=O)N1CCCC(N1)C(=O)OCC(C)(C)C2")
17.9
>>> readout_number("CCC(CC)c1cc(NC2CCC(N)C2)n2nccc2n1 (configuration not stated) + CCn1c(-c2cc(N3CCN(C)CC3)cnc2C(C)OC)c2c3cc(ccc31)-c1csc(n1)CC(NC(=O)C1CC1C)C(=O)N1CCCC(N1)C(=O)OCC(C)(C)C2")
53.3

**Query** Item Nc1ccn(C2OC(CO)C(O)C2(F)F)c(=O)n1 (configuration not stated) + CCn1c(-c2cccnc2C(C)OC)c2c3cc(ccc31)N1CCOC(CC(NC(=O)C(C(C)C)N(C)C(=O)C3(F)CCN(C(=O)C#CC(C)(C)N(C)C)CC3)C(=O)N3CCCC(N3)C(=O)OCC(C)(C)C2)C1 has what recorded viability, T/C?
**Result** 34.6

Sourced from PubChem BioAssay AID2060887
